The origin of these recorded values is the DeepSol protein solubility set.

test-description: soluble on expression in E. coli; label from the status in PepcDB or PDB records

{"polymer-sequence": "MLGAIIGDIVGSVYEWNNIKTKDFPLFRKDCFFTDDTVMTCAVAEAIMNGGQKDDFIDAMKKYGRMYPNADYGARFNAWLNSDNREPYNSFGNGSAMRISPCAWIMDCGFYAKTGIWPSSRGLTSLSAEVTHNHPEGVKGAMATADAIFLCRFYFGGYCREYEQSINDNPTECKRRIKDYIEKEYDYNLSQTLDEIRPNYRFNETCQETVPQAIIAFLESRDFEDAIRNAISLGGDSDTLAAITCSIAEAAYGIPDWIKDKAYSYLDEPLKDVVRRWENRIKAY", "soluble on expression in E. coli": "not soluble"}
{"polymer-sequence": "MGSDKIHHHHHHMTQDFSEIFAKYEALVADVDNVFKRVQEAHPECVTCEKGCSDCCYAVFDLSLVEAMYLNHRFGQKFSFGPERSVIVERADETDRKLVKLKRQAHRDVQNGRDAEEILQDMGRVRVRCPLLGETDGCELYEYRPITCRLYGIPTAIGGKAHSCGKSAFLAGKQYPTVNIDRIHERLAQLSLEIRDAVHSRFSELHTVLVPVSMALLTTYDDAYLGAGATAKGNE", "soluble on expression in E. coli": "not soluble"}

###

test-description: soluble on expression in E. coli; label from the status in PepcDB or PDB records
reported-endpoint: soluble on expression in E. coli

{"polymer-sequence": "SLKYEDINENTIKITLSFDDLTDYDIKLSDFFGNQEVIEQFFYELVDELGLENRFGNVGMLTFQIQPFPQGVHMIVHEEAMLGEGGEIPDDPEEFEELMTGFYNKLNEIGADMARERGITDFKPGLGLPGTKKDEAEQEPDFIYYSIRYEDIMSVLTGIKNVKFADEESEFYRYDGNFYLVVLDNQKEKGKMHVESTRSRMMEYGEATKMSREFLQEYGECLIATRALDVLRKI", "reported-endpoint": "soluble on expression in E. coli", "assay-value": "soluble"}
{"polymer-sequence": "QDSTSDLIPAPPLSKVPLQQNFQDNQFHGKWYVVGLAGNRILRDDQHPMNMYATIYELKEDKSYNVTSVISSHKKCEYTIATFVPGSQPGEFTLGNIKSYGDKTSYLVRVVSTDYNQYAVVFFKLAEDNAEFFAITIYGRTKELASELKENFIRFSKSLGLPENHIVFPVPIDQCIDG", "reported-endpoint": "soluble on expression in E. coli", "assay-value": "soluble"}
{"polymer-sequence": "MAHHHHHHMFPQGLIDQWLSKSREGRRSVREDRKATPAILDNIARLEEYCRSHPYDVFCASTLQHPPFALHALESEAAEQQRLAQPPPVFAATVPSPSAHTTASNEVRGGVCGRYADGDESRASVTAARQHLHNVAARLAAYLQSSGAVRSSASRHEEESQCTVVADFFVHLLSEAAVAAVYRQGIAAQVEAEERAAFQHRQSQRRLQLRVDSKHDGTLQRLELSDSKGADTEAVHEVEGLTVVRPIADYRRLSQGLASLWSLLAQTQRRGGLAVGGPSKERSRDSTADTDSVNDNDNLWTRVRVDCLRHWLGDRALPPPPPLPGTAALGETQRKTEASSPAMPGGAWWSRPLYISERDVEFALRKVLADVTASAAS", "reported-endpoint": "soluble on expression in E. coli", "assay-value": "soluble"}
